The origin of these recorded values is paper PMC6321168.

assay name: Urinary excretion study in rats after oral NS, SF or CNS (LC–MS/MS)
Format: in vivo
condition notes: rat urine, oral CNS 110 mg/kg, 120 h
value kind: Accumulative excretion amount (µg)
Number only, in µg; omit the unit.

The cases that follow already have their Accumulative excretion amount on record.
compound	u	Accumulative excretion amount
CC(C)=CCC[C@](C)(O[C@@H]1O[C@H](CO[C@@H]2O[C@H](CO)[C@@H](O)[C@H](O)[C@H]2O)[C@@H](O)[C@H](O)[C@H]1O)[C@H]1CC[C@]2(C)[C@@H]1[C@H](O)C[C@@H]1[C@@]3(C)CC[C@H](O[C@@H]4O[C@H](CO)[C@@H](O)[C@H](O)[C@H]4O[C@@H]4O[C@H](CO)[C@@H](O)[C@H](O)[C@H]4O)C(C)(C)[C@@H]3CC[C@]12C [ginsenoside Rb1]	µg	1.436
CC(C)=CCC[C@](C)(O[C@@H]1O[C@H](CO)[C@@H](O)[C@H](O)[C@H]1O)[C@H]1CC[C@]2(C)[C@@H]1[C@H](O)C[C@@H]1[C@@]3(C)CC[C@H](O[C@@H]4O[C@H](CO)[C@@H](O)[C@H](O)[C@H]4O[C@@H]4O[C@H](CO)[C@@H](O)[C@H](O)[C@H]4O)C(C)(C)[C@@H]3CC[C@]12C [ginsenoside Rd]	µg	0.148
CC(C)=CCC[C@](C)(O[C@@H]1O[C@H](CO)[C@@H](O)[C@H](O)[C@H]1O)[C@H]1CC[C@]2(C)[C@@H]1[C@H](O)C[C@@H]1[C@@]3(C)CC[C@H](O)C(C)(C)[C@@H]3[C@@H](O[C@@H]3O[C@H](CO)[C@@H](O)[C@H](O)[C@H]3O[C@@H]3O[C@@H](C)[C@H](O)[C@@H](O)[C@H]3O)C[C@]12C [ginsenoside Re]	µg	0.472

For the next question, use this compound.
Ask: Please report the recorded Accumulative excretion amount for CC(C)=CCC[C@](C)(O[C@@H]1O[C@H](CO)[C@@H](O)[C@H](O)[C@H]1O)[C@H]1CC[C@]2(C)[C@@H]1[C@H](O)C[C@@H]1[C@@]3(C)CC[C@H](O)C(C)(C)[C@@H]3[C@@H](O[C@@H]3O[C@H](CO)[C@@H](O)[C@H](O)[C@H]3O)C[C@]12C [ginsenoside Rg1] .
Reply: 9.027

----------
assay name: Urinary excretion study in rats after oral NS, SF or CNS (LC–MS/MS)
Format: in vivo
condition notes: rat urine, oral NS 60 mg/kg, 24 h
Description: The animal room was set at constant temperature of 20 ± 2 °C with humidity of 50 ± 20% and 12/12 h light/dark cycle. Eighteen male rats were fasted for 12 h before starting the experiment. […] The urine volume was recorded and the dry feces were measured for each collection period. […] The accumulative excretion percentage was calculated for each analyte as follows. […]
value kind: Accumulative excretion percentage (%)
Number only, in %; omit the unit.

Ask: Please report the recorded Accumulative excretion percentage for CC(C)=CCC[C@](C)(O[C@@H]1O[C@H](CO[C@@H]2O[C@H](CO)[C@@H](O)[C@H](O)[C@H]2O)[C@@H](O)[C@H](O)[C@H]1O)[C@H]1CC[C@]2(C)[C@@H]1[C@H](O)C[C@@H]1[C@@]3(C)CC[C@H](O[C@@H]4O[C@H](CO)[C@@H](O)[C@H](O)[C@H]4O[C@@H]4O[C@H](CO)[C@@H](O)[C@H](O)[C@H]4O)C(C)(C)[C@@H]3CC[C@]12C [ginsenoside Rb1] .
Reply: 0.044

----------
assay name: Fecal excretion study in rats after oral NS, SF or CNS (LC–MS/MS)
Type: in vivo
condition notes: rat feces, oral CNS 110 mg/kg, 96 h
Method: The animal room was set at constant temperature of 20 ± 2 °C with humidity of 50 ± 20% and 12/12 h light/dark cycle. Eighteen male rats were fasted for 12 h before starting the experiment. […] The urine volume was recorded and the dry feces were measured for each collection period. […] The accumulative excretion percentage was calculated for each analyte as follows. […]
value kind: Accumulative excretion percentage (%)
Number only, in %; omit the unit.

The cases that follow already have their Accumulative excretion percentage on record.
compound	Accumulative excretion percentage [%]
CC(C)=CCC[C@](C)(O[C@@H]1O[C@H](CO)[C@@H](O)[C@H](O)[C@H]1O)[C@H]1CC[C@]2(C)[C@@H]1[C@H](O)C[C@@H]1[C@@]3(C)CC[C@H](O)C(C)(C)[C@@H]3[C@@H](O[C@@H]3O[C@H](CO)[C@@H](O)[C@H](O)[C@H]3O[C@@H]3O[C@@H](C)[C@H](O)[C@@H](O)[C@H]3O)C[C@]12C [ginsenoside Re]	6.182
CC(C)=CCC[C@](C)(O[C@@H]1O[C@H](CO)[C@@H](O)[C@H](O)[C@H]1O)[C@H]1CC[C@]2(C)[C@@H]1[C@H](O)C[C@@H]1[C@@]3(C)CC[C@H](O[C@@H]4O[C@H](CO)[C@@H](O)[C@H](O)[C@H]4O[C@@H]4O[C@H](CO)[C@@H](O)[C@H](O)[C@H]4O)C(C)(C)[C@@H]3CC[C@]12C [ginsenoside Rd]	4.403
CC(C)=CCC[C@](C)(O[C@@H]1O[C@H](CO)[C@@H](O)[C@H](O)[C@H]1O)[C@H]1CC[C@]2(C)[C@@H]1[C@H](O)C[C@@H]1[C@@]3(C)CC[C@H](O)C(C)(C)[C@@H]3[C@@H](O[C@@H]3O[C@H](CO)[C@@H](O)[C@H](O)[C@H]3O)C[C@]12C [ginsenoside Rg1]	3.441

For the next question, use this compound.
Ask: Please report the recorded Accumulative excretion percentage for CC(C)=CCC[C@](C)(O[C@@H]1O[C@H](CO[C@@H]2O[C@H](CO)[C@@H](O)[C@H](O)[C@H]2O)[C@@H](O)[C@H](O)[C@H]1O)[C@H]1CC[C@]2(C)[C@@H]1[C@H](O)C[C@@H]1[C@@]3(C)CC[C@H](O[C@@H]4O[C@H](CO)[C@@H](O)[C@H](O)[C@H]4O[C@@H]4O[C@H](CO)[C@@H](O)[C@H](O)[C@H]4O)C(C)(C)[C@@H]3CC[C@]12C [ginsenoside Rb1] .
Reply: 1.931

----------
assay name: Fecal excretion study in rats after oral NS, SF or CNS (LC–MS/MS)
Type: in vivo
condition notes: rat feces, oral NS 60 mg/kg, 48 h
value kind: Accumulative excretion amount (µg)
Number only, in µg; omit the unit.

Ask: Please report the recorded Accumulative excretion amount for CC(C)=CCC[C@](C)(O[C@@H]1O[C@H](CO[C@@H]2O[C@H](CO)[C@@H](O)[C@H](O)[C@H]2O)[C@@H](O)[C@H](O)[C@H]1O)[C@H]1CC[C@]2(C)[C@@H]1[C@H](O)C[C@@H]1[C@@]3(C)CC[C@H](O[C@@H]4O[C@H](CO)[C@@H](O)[C@H](O)[C@H]4O[C@@H]4O[C@H](CO)[C@@H](O)[C@H](O)[C@H]4O)C(C)(C)[C@@H]3CC[C@]12C [ginsenoside Rb1] .
Reply: 115.527

----------
assay name: Urinary excretion study in rats after oral NS, SF or CNS (LC–MS/MS)
Assay type: in vivo
condition notes: rat urine, oral CNS 110 mg/kg, 72 h
Property: Accumulative excretion amount; scope: individual compounds
Number only, in µg; omit the unit.

The cases that follow already have their Accumulative excretion amount on record.
compound	Accumulative excretion amount (µg)
CC(C)=CCC[C@](C)(O[C@@H]1O[C@H](CO)[C@@H](O)[C@H](O)[C@H]1O)[C@H]1CC[C@]2(C)[C@@H]1[C@H](O)C[C@@H]1[C@@]3(C)CC[C@H](O)C(C)(C)[C@@H]3[C@@H](O[C@@H]3O[C@H](CO)[C@@H](O)[C@H](O)[C@H]3O[C@@H]3O[C@@H](C)[C@H](O)[C@@H](O)[C@H]3O)C[C@]12C [ginsenoside Re]	0.460
CC(C)=CCC[C@](C)(O[C@@H]1O[C@H](CO)[C@@H](O)[C@H](O)[C@H]1O)[C@H]1CC[C@]2(C)[C@@H]1[C@H](O)C[C@@H]1[C@@]3(C)CC[C@H](O)C(C)(C)[C@@H]3[C@@H](O[C@@H]3O[C@H](CO)[C@@H](O)[C@H](O)[C@H]3O)C[C@]12C [ginsenoside Rg1]	8.87
CC(C)=CCC[C@](C)(O[C@@H]1O[C@H](CO[C@@H]2O[C@H](CO)[C@@H](O)[C@H](O)[C@H]2O)[C@@H](O)[C@H](O)[C@H]1O)[C@H]1CC[C@]2(C)[C@@H]1[C@H](O)C[C@@H]1[C@@]3(C)CC[C@H](O[C@@H]4O[C@H](CO)[C@@H](O)[C@H](O)[C@H]4O[C@@H]4O[C@H](CO)[C@@H](O)[C@H](O)[C@H]4O)C(C)(C)[C@@H]3CC[C@]12C [ginsenoside Rb1]	1.373

For the next question, use this compound.
Ask: Please report the recorded Accumulative excretion amount for CC(C)=CCC[C@](C)(O[C@@H]1O[C@H](CO)[C@@H](O)[C@H](O)[C@H]1O)[C@H]1CC[C@]2(C)[C@@H]1[C@H](O)C[C@@H]1[C@@]3(C)CC[C@H](O[C@@H]4O[C@H](CO)[C@@H](O)[C@H](O)[C@H]4O[C@@H]4O[C@H](CO)[C@@H](O)[C@H](O)[C@H]4O)C(C)(C)[C@@H]3CC[C@]12C [ginsenoside Rd] .
Reply: 0.139
